Listed here: items and their measured IC50.
# SYSTEM: Aurora-B kinase (Homo sapiens, UniProt Q96GD4)
# Sequence (Q96GD4 whole entry): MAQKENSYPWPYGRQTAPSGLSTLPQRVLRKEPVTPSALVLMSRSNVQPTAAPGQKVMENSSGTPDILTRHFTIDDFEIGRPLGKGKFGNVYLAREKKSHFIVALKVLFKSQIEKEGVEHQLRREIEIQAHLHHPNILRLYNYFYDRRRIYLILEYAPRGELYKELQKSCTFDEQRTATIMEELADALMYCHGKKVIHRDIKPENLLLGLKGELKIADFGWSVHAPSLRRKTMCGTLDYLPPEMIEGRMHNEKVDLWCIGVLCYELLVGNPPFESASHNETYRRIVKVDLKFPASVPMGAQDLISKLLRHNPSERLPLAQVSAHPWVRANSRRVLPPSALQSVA
# PROTOCOL DETAILS: In vitro Aurora-B kinase inhibition test
# MEASUREMENT CONTEXT: recombinant Aurora-B, peptide substrate, [γ33P]ATP, 60 minutes at room temperature; read-out: 50% inhibition of enzyme activity at a concentration of
Please state the figure in nM; there is no need to write the unit.

Answered examples (2):
Challenge: Hello, I am looking for reported IC50 with Aurora-B kinase (Homo sapiens, UniProt Q96GD4) for "COc1cc2c(Nc3cnn(CC(=O)Nc4cccc(F)c4)c3)ncnc2cc1OCCCN1CCC[C@@H]1CO" . Could you help?
Response given: 5

Challenge: Can you look up IC50 on Aurora-B kinase (Homo sapiens, UniProt Q96GD4) for "CCN(CCO)CCCOc1ccc2c(Nc3cnn(CC(=O)Nc4cccc(F)c4)c3)ncnc2c1" ?
Response given: 9

Next item in the queue.
Challenge: Record "COc1cc2c(Nc3cnn(CC(=O)Nc4cccc(F)c4F)c3)ncnc2cc1OCCCN(CCO)CC(C)C" : what is its IC50 with Aurora-B kinase (Homo sapiens, UniProt Q96GD4)?
Response given: 8

----------
# Test system: SW620 cells
# PROTOCOL DETAILS: In vitro cell cycle analysis assay
# Assay type: cell-based
# MEASUREMENT CONTEXT: Homo sapiens, SW-620, 24 hours with compound, DNA content by FACS, read-out: 50% inhibition of enzyme activity at a concentration of
// reported pIC50 per item
The value called pIC50 is obtained by taking minus log10 of the concentration in mol/L.

Here are 2 molecules together with their reported answers.
Challenge: Form: Entry = COc1cc2c(Nc3cnn(CC(=O)Nc4cccc(F)c4F)c3)ncnc2cc1OCCCN(CCO)CC(C)C [Compound 60] | System = SW620 cells | pIC50 = ____
Response given: 8.52

Challenge: Find the measured pIC50: item CCN(CCO)CCCOc1ccc2c(Nc3cnn(CC(=O)Nc4cccc(F)c4)c3)ncnc2c1 [Compound 187] , target or system SW620 cells.
Response given: 7.68

For the next question, use this molecule.
Challenge: Lab note: need pIC50 with SW620 cells for entry COc1cc2c(Nc3cnn(CC(=O)Nc4cccc(F)c4)c3)ncnc2cc1OCCCN1CCC[C@@H]1CO [Compound 27] , please look it up.
Response given: 8.15
